System: PER-536
Assay: IC50 cell viability (Alamar Blue, 96 h)
Threshold 300 nM: IC50 cell viability strictly smaller gives criterion met, otherwise criterion not met.

Asked: For this molecule, is IC50 cell viability lower than 300 nM? Cc1cc(/C=C/c2ccc3cc(N(C)C)ccc3[n+]2C)c(C)n1-c1ccccc1 [Pyrvinium pamoate]
Given back: criterion met

Asked: For this molecule, is IC50 cell viability lower than 300 nM? `COc1cc(Nc2ncc3c(n2)-c2ccc(Cl)cc2C(c2c(F)cccc2OC)=NC3)ccc1C(=O)O`
Given back: criterion not met

Asked: For this molecule, is IC50 cell viability lower than 300 nM? `COc1cc2c(cc1-c1c(C)noc1C)ncc1[nH]c(=O)n([C@H](C)c3ccccn3)c12`
Given back: criterion not met

Asked: For this molecule, is IC50 cell viability lower than 300 nM? `Cc1sc2c(c1C)C(c1ccc(Cl)cc1)=N[C@@H](CC(=O)Nc1ccc(O)cc1)c1nnc(C)n1-2`
Given back: criterion not met

Asked: For this molecule, is IC50 cell viability lower than 300 nM? `C#Cc1cccc(Nc2ncnc3cc(OCCOC)c(OCCOC)cc23)c1`
Given back: criterion not met

Asked: For this molecule, is IC50 cell viability lower than 300 nM? `CN1CC[C@H](c2c(O)cc(O)c3c(=O)cc(-c4ccccc4Cl)oc23)[C@H](O)C1`
Given back: criterion met

Asked: For this molecule, is IC50 cell viability lower than 300 nM? `CC[C@@]1(O)C(=O)OCc2c1cc1n(c2=O)Cc2cc3c(CN(C)C)c(O)ccc3nc2-1`
Given back: criterion met

Asked: For this molecule, is IC50 cell viability lower than 300 nM? `CCN(CCCOc1ccc2c(Nc3cc(CC(=O)Nc4cccc(F)c4)[nH]n3)ncnc2c1)CCOP(=O)(O)O`
Given back: criterion not met

Asked: For this molecule, is IC50 cell viability lower than 300 nM? `Cc1csc(-c2nnc(Nc3ccc(Oc4ncccc4-c4ccnc(N)n4)cc3)c3ccccc23)c1`
Given back: criterion not met

Asked: For this molecule, is IC50 cell viability lower than 300 nM? `CC(=O)O[C@@]12CO[C@@H]1C[C@H](O)[C@@]1(C)C(=O)[C@H](O)C3=C(C)[C@@H](OC(=O)[C@H](O)[C@@H](NC(=O)OC(C)(C)C)c4ccccc4)C[C@@](O)([C@@H](OC(=O)c4ccccc4)[C@H]21)C3(C)C`
Given back: criterion met

Asked: For this molecule, is IC50 cell viability lower than 300 nM? `C/C(=C\c1csc(C)n1)[C@@H]1C[C@@H]2O[C@]2(C)CCC[C@H](C)[C@H](O)[C@@H](C)C(=O)C(C)(C)[C@@H](O)CC(=O)O1`
Given back: criterion met

Asked: For this molecule, is IC50 cell viability lower than 300 nM? `O=C(CCCCCCC(=O)Nc1ccccc1)NO`
Given back: criterion not met

Asked: For this molecule, is IC50 cell viability lower than 300 nM? `COc1cccc2c1C(=O)c1c(O)c3c(c(O)c1C2=O)C[C@@](O)(C(C)=O)C[C@@H]3O[C@H]1C[C@H](N)[C@H](O)[C@H](C)O1`
Given back: criterion not met

Asked: For this molecule, is IC50 cell viability lower than 300 nM? `CCCOc1ccn2c(C(C)=O)cc(-c3ccccc3S(C)(=O)=O)c2c1`
Given back: criterion not met

Asked: For this molecule, is IC50 cell viability lower than 300 nM? `C[C@H]1O[C@@H](O[C@H]2[C@@H](O)C[C@H](O[C@H]3[C@@H](O)C[C@H](O[C@H]4CC[C@@]5(C)[C@H](CC[C@@H]6[C@@H]5C[C@@H](O)[C@]5(C)[C@@H](C7=CC(=O)OC7)CC[C@]65O)C4)O[C@@H]3C)O[C@@H]2C)C[C@H](O)[C@@H]1O`
Given back: criterion not met
